The values you see were collected from the supplement of paper PMC11061612.

Bliss excess reference
test system: HAL-01 (B-Lymphoblastic Leukemia); test: Bliss excess, mean over the matrix (fraction); higher = more synergy;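 further: after 72 h of two-drug dosing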
Keep the answer to the number alone.

compound	Bliss excess
Cc1c2c(nn1C)CSCc1cc(n(C)n1)CSc1cc(c3ccccc3c1)OCCCc1c(C(=O)O)n(C)c3c-2c(Cl)ccc13 [AZD5991] + Nc1ccn([C@@H]2O[C@H](CO)[C@@H](O)C2(F)F)c(=O)n1 [Gemcitabine] (first compound max 1 µM, 7x7, partner max 0.3 µM)	0.0025

Now examine the next entry.
[in] Given the compound COc1cc2c(cc1OCCCCCOc1cc3c(cc1OC)C(=O)N1C=C(C)C[C@H]1C=N3)N=C[C@@H]1CC(C)=CN1C2=O [SG3199] + O=C(c1cc(Cc2n[nH]c(=O)c3ccccc23)ccc1F)N1CCN(C(=O)C2CC2)CC1 [Olaparib] (first compound max 0.001 µM, 7x7, partner max 10 µM) , write its reported Bliss excess.
[out] 0.0067
